Target: SARS-CoV-2 "Epsilon" B.1.427/9 full-length Spike protein on pseudovirus (SARS-CoV-2, UniProt P0DTC2 14-1273)
Experiment: cell-based or functional assay
readout type: Pseudovirus Neturalization (µg/mL)
# unit: µg/mL | format: bare number

• AB-009281 (antibody, V domains shown) VH: EVQLVETGGGLIQPGGSLRLSCAASGFTVSSNYMSWVRQAPGKGLEWVSVIYSGGSTYYADSVKGRFTISRDNSKNTLYLQMNSLRAEDTAVYYCARDLYYYGMDVWGQGTTVTVSS VL: DIQLTQSPSFLSASVGDRVTITCRASQGISSYLAWYQQKPGKAPKLLIYAASTLQSGVPSRFSGSGSGTEFTLTISSLQPEDFATYYCQQLNSYPTFGQGTKVEIK = 0.041

Consider now this further binder.
Lab book: Pseudovirus Neturalization of AB-009620 (antibody, V domains shown) VH: QITLKESGPTLVKPTQTLTLTCTFSGFSLSTSGVGVGWIRQPPGKALEWLALIYWDDDKRYSPSLKSRLTITKDTSKNQVVLTMTNMDPVDTATYYCAHHEVATVFDYWGQGTLVTVSS VL: QSALTQPASVSGSPGQSITISCTGTSSDVGAYNYVSWYQQHPGKAPKLMIYEVSNRPSGVSNRFSGSKSGNTASLTISGLQAEDEADYYCSSYTSSSTVFGGGTKLTVL noted as 0.974
